Test method notes: Cmax in Sprague-Dawley rat at 500 ug/kg, iv
Assay type: ADME
Design: dose 500 ug/kg, route intravenous
Measurement context: in vivo, 0.5 mg/kg
Endpoint name: Cmax

Cmax reported for this molecule "O=C(NC1CC1)c1cccc(-c2cccc(-c3cc(Nc4cccc5ncccc45)c4c(n3)CCNC4=O)c2)c1" : 118 ng/mL

* * *

Measured pIC50 values are reported for all entries that follow.
Target or test system: 3',5'-cyclic-AMP phosphodiesterase 4B (Homo sapiens)
Test method notes: Inhibition of recombinant human PDE4B1 using [3H]-cAMP as substrate […] measured after 60 mins by scintillation proximity assay
Reminder that pIC50 is minus the log10 of a molar concentration.

pIC50 reported for this compound COc1cccc(Nc2cc(-c3ccccc3)nc3c2C(=O)NCC3C)c1 (stereo not given) : 6.19

pIC50 reported for this compound "CNC(=O)c1cnc(-c2ccccc2)cc1Nc1cccc2ncccc12" : 5.24

pIC50 reported for this compound "COc1cccc(Nc2cc(-c3cccc(OC)c3)nc3c2/C(=N/C#N)NCC3)c1" : 7.89

pIC50 reported for this compound "COc1cccc(Nc2nc(-c3ccccc3)nc3c2C(=O)NCC3)c1" : 7.28

pIC50 reported for this compound "O=C1NCCc2nc(-c3ccccc3)cc(Nc3ccc(CCO)cc3)c21" : 7.92

---
pIC50 reported for this compound "COc1cccc(Nc2cc(-c3cccc(-c4cccc(C(N)=O)c4)c3)nc3c2C(=O)NCC3)c1" : 9.55

pIC50 reported for this compound "COc1cccc(Nc2cc(-c3ccccc3)nc3c2C(=O)NCC3)c1" : 8.80

pIC50 reported for this compound "O=C1NCCc2nc(-c3ccccc3)cc(Nc3cccc4ncccc34)c21" : 9.02

* * *

Test method notes: Thermodynamic solubility of the compound at 22 degC
Type: physicochemical
Measurement context: read-out: Therm_solubility
Endpoint name: solubility thermodynamic (µg/mL)
Reply numerically in µg/mL, unit not repeated.

solubility thermodynamic reported for this molecule "O=C(Nc1c(Cl)cncc1Cl)c1ccc(OC(F)F)c(OCC2CC2)c1" : 0.52

* * *

Test method notes: Half life in Sprague-Dawley rat at 500 ug/kg, iv
Format: ADME
Measurement context: in vivo, 0.5 mg/kg
Endpoint name: half-life (min)
Reply numerically in min, unit not repeated.

half-life reported for this molecule "O=C(NC1CC1)c1cccc(-c2cccc(-c3cc(Nc4cccc5ncccc45)c4c(n3)CCNC4=O)c2)c1" : 54

* * *

Test method notes: AUC in Sprague-Dawley rat at 500 ug/kg, iv
Format: ADME
Measurement context: in vivo, 0.5 mg/kg
Endpoint name: AUC
Output should be the measured figure followed by the unit it is expressed in.

AUC reported for this molecule "O=C(NC1CC1)c1cccc(-c2cccc(-c3cc(Nc4cccc5ncccc45)c4c(n3)CCNC4=O)c2)c1" : 108 ng·h/mL

* * *

Target or test system: 3',5'-cyclic-AMP phosphodiesterase 4B (Homo sapiens, UniProt Q07343)
Sequence (Q07343 whole entry): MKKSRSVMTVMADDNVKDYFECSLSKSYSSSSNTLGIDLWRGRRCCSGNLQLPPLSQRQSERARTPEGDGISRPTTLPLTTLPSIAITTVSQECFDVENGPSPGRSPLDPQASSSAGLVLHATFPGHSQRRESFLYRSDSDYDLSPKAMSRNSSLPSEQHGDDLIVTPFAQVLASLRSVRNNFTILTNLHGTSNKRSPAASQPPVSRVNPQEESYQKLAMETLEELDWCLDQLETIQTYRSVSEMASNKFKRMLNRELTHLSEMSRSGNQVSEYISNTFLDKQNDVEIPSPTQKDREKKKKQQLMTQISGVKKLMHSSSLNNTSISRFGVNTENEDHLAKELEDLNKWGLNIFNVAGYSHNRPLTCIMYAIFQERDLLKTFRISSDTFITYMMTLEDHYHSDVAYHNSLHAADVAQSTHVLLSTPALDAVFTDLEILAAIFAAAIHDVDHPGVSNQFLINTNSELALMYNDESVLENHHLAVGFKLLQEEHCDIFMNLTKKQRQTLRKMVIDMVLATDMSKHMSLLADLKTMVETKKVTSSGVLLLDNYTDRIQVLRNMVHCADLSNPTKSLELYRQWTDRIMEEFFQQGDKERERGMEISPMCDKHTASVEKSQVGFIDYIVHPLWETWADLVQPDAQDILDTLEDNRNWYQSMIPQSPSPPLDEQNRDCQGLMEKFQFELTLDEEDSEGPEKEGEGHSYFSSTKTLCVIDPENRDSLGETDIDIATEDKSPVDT
Test method notes: Inhibition of recombinant human PDE4B1 using [3H]-cAMP as substrate […] measured after 60 mins by scintillation proximity assay
Measured IC50 values are reported for all entries that follow.
Reply numerically in nM, unit not repeated.

Some molecules with known IC50 results, for comparison:
IC50 reported for this molecule "O=C1NCCc2nc(-c3ccccc3)cc(NCc3ccncc3)c21" : 25

IC50 reported for this molecule "O=C1NCCc2nc(-c3ccccc3)cc(Nc3cccc4ccccc34)c21" : 11

IC50 reported for this molecule "O=C(NC1CC1)c1cccc(-c2cccc(-c3cc(Nc4cccc5ncccc45)c4c(n3)CCNC4=O)c2)c1" : 0.17

IC50 reported for this molecule "O=C(NC1CC1)c1cccc(-c2cccc(-c3cc(Nc4cccc5c4ccc[n+]5[O-])c4c(n3)CCNC4=O)c2)c1" : 0.045

IC50 reported for this molecule "Nc1cc(-c2ccccc2)nc2c1C(=O)NCC2" : 2400

IC50 reported for this molecule "O=C(O)c1ccc(-c2cccc(-c3cc(Nc4cccc5ncccc45)c4c(n3)CCNC4=O)c2)cc1" : 0.11

IC50 reported for this molecule "O=C1NCCc2nc(-c3ccccc3)cc(Nc3cccc4cnccc34)c21" : 14

IC50 reported for this molecule "COc1cccc(Nc2cc(-c3cccc(OC)c3)nc3c2C(=O)NCC3)c1" : 8.4

---
IC50 reported for this molecule "COc1cc(Nc2cc(-c3ccccc3)nc3c2C(=O)NCC3)cc(OC)c1" : 27

IC50 reported for this molecule "O=C1NCCc2nc(-c3ccc(F)c(F)c3)cc(Nc3cccc4ncccc34)c21" : 0.75

IC50 reported for this molecule "COc1cccc(Nc2cc(-c3cccc(-c4cccc(C(=O)NCCN(C)C)c4)c3)nc3c2C(=O)NCC3)c1" : 0.23

IC50 reported for this molecule "COc1cccc(Nc2cc(-c3ccccc3)ncc2C(N)=O)c1" : 240

IC50 reported for this molecule "COc1cccc(Nc2cc(-c3cccc(Sc4cccc(OC)c4)c3)nc3c2C(=O)NCC3)c1" : 1.6

IC50 reported for this molecule "NC(=O)c1cnc(-c2ccccc2)cc1Nc1cccc2ncccc12" : 35

* * *

Test method notes: Volume of distribution at steady state in Sprague-Dawley rat at 500 ug/kg, iv
Assay type: ADME
Measurement context: in vivo, 0.5 mg/kg, read-out: Vdss
Endpoint name: Vd (L/kg)
Reply numerically in L/kg, unit not repeated.

Vd reported for this compound "O=C(NC1CC1)c1cccc(-c2cccc(-c3cc(Nc4cccc5ncccc45)c4c(n3)CCNC4=O)c2)c1" : 3.9

* * *

Target or test system: 3',5'-cyclic-AMP phosphodiesterase 4B (Homo sapiens, UniProt Q07343)
Test method notes: Inhibition of recombinant human PDE4B1 using [3H]-cAMP as substrate […] measured after 60 mins by scintillation proximity assay
Measured IC50 values are reported for all entries that follow.
Reply numerically in nM, unit not repeated.

Entry "O=C(NC1CC1)c1cccc(-c2cccc(-c3cc(Nc4ccnc5ccccc45)c4c(n3)CCNC4=O)c2)c1" under 3',5'-cyclic-AMP phosphodiesterase 4B (Homo sapiens, UniProt Q07343) had IC50 of 0.27

Entry "Cn1nc(Nc2cc(-c3ccccc3)nc3c2C(=O)NCC3)c2cccnc21" under 3',5'-cyclic-AMP phosphodiesterase 4B (Homo sapiens, UniProt Q07343) had IC50 of 11

Entry COc1cccc(Nc2cc(-c3ccccc3)nc3c2C(=O)NC(C)C3)c1 (configuration not stated) under 3',5'-cyclic-AMP phosphodiesterase 4B (Homo sapiens, UniProt Q07343) had IC50 of 120

Entry "COc1cc(Nc2cc(-c3ccccc3)nc3c2C(=O)NCC3)ccc1C(=O)O" under 3',5'-cyclic-AMP phosphodiesterase 4B (Homo sapiens, UniProt Q07343) had IC50 of 2.3

Entry "NC(=O)c1ccc(Nc2cc(-c3ccccc3)nc3c2C(=O)NCC3)cc1" under 3',5'-cyclic-AMP phosphodiesterase 4B (Homo sapiens, UniProt Q07343) had IC50 of 1.5

---
Entry "COc1cccc(Nc2cc(-c3cc[n+]([O-])cc3)nc3c2C(=O)NCC3)c1" under 3',5'-cyclic-AMP phosphodiesterase 4B (Homo sapiens, UniProt Q07343) had IC50 of 51

Entry "O=C1NCCc2nc(-c3ccccc3)cc(Nc3cccc(CO)c3)c21" under 3',5'-cyclic-AMP phosphodiesterase 4B (Homo sapiens, UniProt Q07343) had IC50 of 24

Entry "NC(=O)c1cccc(Nc2cc(-c3ccccc3)nc3c2C(=O)NCC3)c1" under 3',5'-cyclic-AMP phosphodiesterase 4B (Homo sapiens, UniProt Q07343) had IC50 of 12

Entry "CN(C)CCCNC(=O)c1cccc(-c2cccc(-c3cc(Nc4cccc5ncccc45)c4c(n3)CCNC4=O)c2)c1" under 3',5'-cyclic-AMP phosphodiesterase 4B (Homo sapiens, UniProt Q07343) had IC50 of 0.11

Entry "N#Cc1cccc(Nc2cc(-c3ccccc3)nc3c2C(=O)NCC3)c1" under 3',5'-cyclic-AMP phosphodiesterase 4B (Homo sapiens, UniProt Q07343) had IC50 of 3.3

Entry "O=C1NCCc2nc(-c3cccc(-c4cccc(O)c4)c3)cc(Nc3cccc4ncccc34)c21" under 3',5'-cyclic-AMP phosphodiesterase 4B (Homo sapiens, UniProt Q07343) had IC50 of 0.89

Entry "CCOC(=O)c1ccc(-c2cccc(-c3cc(Nc4cccc5ncccc45)c4c(n3)CCNC4=O)c2)cc1" under 3',5'-cyclic-AMP phosphodiesterase 4B (Homo sapiens, UniProt Q07343) had IC50 of 1.2

Entry "O=C1NCCc2nc(-c3ccccc3)cc(Nc3ccc(C[C@@H](O)CO)cc3)c21" under 3',5'-cyclic-AMP phosphodiesterase 4B (Homo sapiens, UniProt Q07343) had IC50 of 8.7

Entry "O=C(NC1CC1)c1cccc(-c2cccc(-c3cc(Nc4cncc5ccccc45)c4c(n3)CCNC4=O)c2)c1" under 3',5'-cyclic-AMP phosphodiesterase 4B (Homo sapiens, UniProt Q07343) had IC50 of 0.32

Entry "COc1cccc(Nc2cc(-c3ccccc3OC)nc3c2C(=O)NCC3)c1" under 3',5'-cyclic-AMP phosphodiesterase 4B (Homo sapiens, UniProt Q07343) had IC50 of 32

Entry "O=C1NCCc2nc(-c3ccccc3)cc(NCCc3ccncc3)c21" under 3',5'-cyclic-AMP phosphodiesterase 4B (Homo sapiens, UniProt Q07343) had IC50 of 12

Entry "COc1cccc(Nc2cc(-c3cccc(OC)c3)nc3c2/C(=N/O)NCC3)c1" under 3',5'-cyclic-AMP phosphodiesterase 4B (Homo sapiens, UniProt Q07343) had IC50 of 2000

Entry "O=C1NCCc2nc(-c3ccccc3)cc(Nc3ccc4ncccc4c3)c21" under 3',5'-cyclic-AMP phosphodiesterase 4B (Homo sapiens, UniProt Q07343) had IC50 of 2.3

Entry "COc1cccc(Nc2cc(-c3cccc(-c4cccc(C(=O)NC5CC5)c4)c3)nc3c2C(=O)NCC3)c1" under 3',5'-cyclic-AMP phosphodiesterase 4B (Homo sapiens, UniProt Q07343) had IC50 of 2.1
